// provenance: ChEMBL document CHEMBL4610050

I'd be grateful if you could share measured CC50 for these entries.
- experimentalProtocol: Cytotoxicity against human THP-1 cells
- Assay type: cell-based
Numbers only, in µM.

C/C(=N\NS(=O)(=O)c1ccc(C)cc1)c1nc2ccccc2o1    250
O=C(/C=C/c1ccc(O)cc1)c1ccc(O)cc1O    250

Turning to the following molecule.
Query: If you can, please state the reported CC50 value of COc1ccc(S(=O)(=O)N/N=C(\C)c2nc3ccccc3o2)cc1 .
Reply: 250

====

- targetOrSystem: NACHT, LRR and PYD domains-containing protein 3 (Homo sapiens, UniProt Q96P20)
- Sequence (Q96P20 whole entry, the tested form may be a part): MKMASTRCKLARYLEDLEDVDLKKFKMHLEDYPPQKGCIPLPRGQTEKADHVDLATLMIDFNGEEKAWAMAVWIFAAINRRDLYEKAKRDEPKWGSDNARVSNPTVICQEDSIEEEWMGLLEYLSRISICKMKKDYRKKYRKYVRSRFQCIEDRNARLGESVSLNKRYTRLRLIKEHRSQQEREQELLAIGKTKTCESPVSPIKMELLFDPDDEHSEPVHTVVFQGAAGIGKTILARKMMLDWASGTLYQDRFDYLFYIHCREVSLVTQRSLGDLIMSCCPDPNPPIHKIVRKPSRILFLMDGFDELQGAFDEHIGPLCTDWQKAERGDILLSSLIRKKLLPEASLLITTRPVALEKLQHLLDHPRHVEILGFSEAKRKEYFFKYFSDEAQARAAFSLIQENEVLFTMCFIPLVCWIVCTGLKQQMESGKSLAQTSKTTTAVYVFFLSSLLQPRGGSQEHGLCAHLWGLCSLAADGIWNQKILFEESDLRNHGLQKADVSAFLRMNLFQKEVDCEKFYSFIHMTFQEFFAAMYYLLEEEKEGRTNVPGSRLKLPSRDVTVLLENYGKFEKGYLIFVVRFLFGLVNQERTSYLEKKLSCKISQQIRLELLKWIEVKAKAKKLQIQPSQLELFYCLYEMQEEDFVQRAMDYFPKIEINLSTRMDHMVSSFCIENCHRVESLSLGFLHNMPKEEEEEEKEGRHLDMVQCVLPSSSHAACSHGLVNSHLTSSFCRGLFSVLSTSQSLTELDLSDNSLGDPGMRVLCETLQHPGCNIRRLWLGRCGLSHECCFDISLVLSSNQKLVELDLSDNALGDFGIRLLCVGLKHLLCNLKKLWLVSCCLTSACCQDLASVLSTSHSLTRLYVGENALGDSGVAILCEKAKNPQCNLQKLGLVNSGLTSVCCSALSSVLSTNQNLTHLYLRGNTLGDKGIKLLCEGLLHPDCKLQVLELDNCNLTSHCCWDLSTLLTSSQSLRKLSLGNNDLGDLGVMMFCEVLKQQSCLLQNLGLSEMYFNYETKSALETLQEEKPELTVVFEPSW
- experimentalProtocol: Inhibition of NLRP3 in human THP1 cells assessed as inhibition of MSU-induced IL-1beta production
I'd be grateful if you could share measured IC50 for these entries.
One number for each entry, in µM.

O=C(/C=C/c1ccc(O)cc1)c1ccc(O)cc1O    10.1

Query: If you can, please state the reported IC50 value of COc1ccc(S(=O)(=O)N/N=C(\C)c2nc3ccccc3o2)cc1 .
Reply: 7.5
